Measured viability, T/C, listed per entry.
Test system: 454973-116-R2-J3-PDC spheroids, percent test/control viability
ASSAY_PROCEDURE: Anticancer human tumor 454973-116-R2-J3-PDC patient-derived pancreatic carcinoma cell line growth inhibition [CLK]
MEASUREMENT_SETUP: second compound 10 µM; first compound 0.003 µM; stronger effect = lower value; spheroids with HUVEC and MSC
Could you give me the number in %? Just the number is fine.

Known results for compounds:
{"columns": ["COMPOUND", "viability, T/C (%)"],
 "data": [
  ["C=CC(=O)Nc1cc(Nc2nccc(-c3cn(C)c4ccccc34)n2)c(OC)cc1N(C)CCN(C)C + CN1CCN(c2cc(C(=O)Nc3cc4cc(-c5cnn(C)c5)ccc4cn3)ccn2)CC1", 0.26],
  ["CC(C)CC(NC(=O)C(Cc1ccccc1)NC(=O)c1cnccn1)B(O)O (centres undefined) + CNC(=O)c1ccc(Nc2nc(OC3CCCC3)c3c(-c4ccc5nc(C)oc5c4)c[nH]c3n2)c(OC)c1", 2.63],
  ["C=CC(=O)Nc1cc(Nc2nccc(-c3cn(C)c4ccccc34)n2)c(OC)cc1N(C)CCN(C)C + CNC(=O)c1ccc(Nc2nc(OC3CCCC3)c3c(-c4ccc5nc(C)oc5c4)c[nH]c3n2)c(OC)c1", 24]
]}

If you can, please state the reported viability, T/C value of CC(C)CC(NC(=O)C(Cc1ccccc1)NC(=O)c1cnccn1)B(O)O (centres undefined) + CN1CCN(c2cc(C(=O)Nc3cc4cc(-c5cnn(C)c5)ccc4cn3)ccn2)CC1 .
0.13

* * *

Tested on: 454973-116-R2-J3-PDC spheroids, percent test/control viability
ASSAY_PROCEDURE: Anticancer human tumor 454973-116-R2-J3-PDC cell line growth inhibition [CLK];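 further: spheroids exposed to compounds for 7 days before readout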
MEASUREMENT_SETUP: second compound 3.16 µM; first compound 0.03 µM; stronger effect = lower value; spheroids with HUVEC and MSC
ENDPOINT: viability, T/C

Known results for compounds:
{"columns": ["COMPOUND", "RECORDED_MEASUREMENT"],
 "data": [
  ["CC(C)CC(NC(=O)C(Cc1ccccc1)NC(=O)c1cnccn1)B(O)O (stereo unspecified) + CN1CCN(c2cc(C(=O)Nc3cc4cc(-c5cnn(C)c5)ccc4cn3)ccn2)CC1", "0.05%"],
  ["CC(C)CC(NC(=O)C(Cc1ccccc1)NC(=O)c1cnccn1)B(O)O (stereo unspecified) + CNC(=O)c1ccc(Nc2nc(OC3CCCC3)c3c(-c4ccc5nc(C)oc5c4)c[nH]c3n2)c(OC)c1", "1.66%"]
]}

If you can, please state the reported viability, T/C value of C=CC(=O)Nc1cc(Nc2nccc(-c3cn(C)c4ccccc34)n2)c(OC)cc1N(C)CCN(C)C + CN1CCN(c2cc(C(=O)Nc3cc4cc(-c5cnn(C)c5)ccc4cn3)ccn2)CC1 .
0.2%

If you can, please state the reported viability, T/C value of NC(=O)C(=Cn1cnc(-c2cc(C(F)(F)F)cc(C(F)(F)F)c2)n1)c1cncnc1 + CNC(=O)c1ccc(Nc2nc(OC3CCCC3)c3c(-c4ccc5nc(C)oc5c4)c[nH]c3n2)c(OC)c1 .
30.6%

If you can, please state the reported viability, T/C value of NC(=O)C(=Cn1cnc(-c2cc(C(F)(F)F)cc(C(F)(F)F)c2)n1)c1cncnc1 + CN1CCN(c2cc(C(=O)Nc3cc4cc(-c5cnn(C)c5)ccc4cn3)ccn2)CC1 .
0.28%

If you can, please state the reported viability, T/C value of C=CC(=O)Nc1cc(Nc2nccc(-c3cn(C)c4ccccc34)n2)c(OC)cc1N(C)CCN(C)C + CNC(=O)c1ccc(Nc2nc(OC3CCCC3)c3c(-c4ccc5nc(C)oc5c4)c[nH]c3n2)c(OC)c1 .
27.8%
